Origin of values: patent US20250368649A1

Biological target: KRas G12V (Homo sapiens, UniProt P01116, G12V)
Sequence (P01116 1-169 isoform P01116-2 G12V): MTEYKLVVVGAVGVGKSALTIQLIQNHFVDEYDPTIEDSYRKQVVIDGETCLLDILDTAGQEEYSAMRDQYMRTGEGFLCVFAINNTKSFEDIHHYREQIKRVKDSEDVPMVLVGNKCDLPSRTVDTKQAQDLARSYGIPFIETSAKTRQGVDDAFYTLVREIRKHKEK
Assay: biochemical
Settings: Binding to KRas (IC50 nM) G12V, TR-FRET displacement, KRas G12V
Assign labels as follows, please: Satisfied for IC50 below 8 nM; Not satisfied for IC50 equal to or exceeding 8 nM.

{"Molecule": "O=C1CC2(CCCN(c3nc(OC[C@@]45CCCN4C[C@H](F)C5)nc4c3CCN(c3cc(O)cc5ccc(F)c(Cl)c35)C4)C2)C(=O)N1 (stereo partly drawn) [Example 467]", "Assigned label": "Satisfied"}
{"Molecule": "CCc1c(F)ccc2cc(O)cc(N3CCc4c(nc(OCC56CCCN5C/C(=C\\F)C6)nc4N4CCCn5nc(C(=O)N(C)C)cc5C4)C3)c12 (stereo not drawn) [Example 578]", "Assigned label": "Satisfied"}
{"Molecule": "CCc1cccc2cccc(N3CCc4c(nc(OCC5(CN(C)C)CC5)nc4NCc4ncc5c(n4)CCOC5)C3)c12 [Example 701]", "Assigned label": "Not satisfied"}
{"Molecule": "CCc1cccc2cccc(N3CCc4c(nc(OCC56CCCN5CCC6)nc4N4CCC(O)CC(S(C)(=O)=O)C4)C3)c12 (single isomer, unassigned) [Example 479]", "Assigned label": "Not satisfied"}
{"Molecule": "CCc1cccc2cccc(N3CCc4c(nc(OCC5(CN(C)C)CC5)nc4NC4CN(c5nncs5)C4)C3)c12 [Example 674]", "Assigned label": "Not satisfied"}
{"Molecule": "CN(C)C(=O)c1cc2n(n1)CCCN(c1nc(OC[C@@]34CCCN3C[C@H](F)C4)nc3c1CCN(c1ccc(F)c4sc(N)c(C#N)c14)C3)C2 [Example 709]", "Assigned label": "Not satisfied"}
{"Molecule": "CCc1c(F)ccc2cc(O)cc(N3CCc4c(nc(OC[C@]56CCCN5[C@H](COC(=O)N(C)C)CC6)nc4N4CCC[C@@](C)(O)C4)C3)c12 [Example 435]", "Assigned label": "Satisfied"}
{"Molecule": "CCc1c(F)ccc2cc(O)cc(N3CCc4c(nc(OC[C@@]56CCCN5C[C@H](F)C6)nc4N4C[C@H]5C[C@@H](C4)C(=O)NC5=O)C3)c12 [Example 416]", "Assigned label": "Satisfied"}
{"Molecule": "CCc1cccc2cccc(N3CCc4c(nc(OCC5(CN(C)C)CC5)nc4N4CCCC(c5nc(C)c(C)[nH]5)C4)C3)c12 (stereo not drawn) [Example 687]", "Assigned label": "Not satisfied"}
{"Molecule": "CCc1c(F)ccc2cc(O)cc(N3CCc4c(nc(OC[C@@]56CCCN5C[C@H](F)C6)nc4N4CCCn5nc(C(=O)NC)c(Cl)c5C4)C3)c12 [Example 388]", "Assigned label": "Satisfied"}
{"Molecule": "CCc1c(F)ccc2cc(O)cc(N3CCc4c(nc(OCC5(CN(C)C)CC5)nc4N4CC(C)CC(CO)C4)C3)c12 (stereo not drawn) [Example 596]", "Assigned label": "Satisfied"}
{"Molecule": "CCc1c(F)ccc2cc(O)cc(N3CCc4c(nc(OC[C@@]56CCCN5C[C@H](F)C6)nc4N4CCCn5nc(N(C(C)C)S(C)(=O)=O)cc5C4)C3)c12 [Example 285]", "Assigned label": "Not satisfied"}
{"Molecule": "CCc1cccc2cccc(N3CCc4c(nc(OCC5(CN(C)C)CC5)nc4N4CCOCC(C)C4)C3)c12 (stereo not drawn) [Example 664]", "Assigned label": "Not satisfied"}
{"Molecule": "CCc1c(F)ccc2cc(O)cc(N3CCc4c(nc(OC[C@@]56CCCN5C[C@H](F)C6)nc4N4CCCn5nc(NC)c(F)c5C4)C3)c12 [Example 406]", "Assigned label": "Satisfied"}
{"Molecule": "CCc1cccc2cccc(N3CCc4c(nc(OCC5(CN(C)C)CC5)nc4NCc4nc(C5CC5)n[nH]4)C3)c12 [Example 675]", "Assigned label": "Not satisfied"}
{"Molecule": "CCc1c(F)ccc2cc(O)cc(N3CCc4c(nc(OC[C@@]56CCCN5C[C@H](F)C6)nc4N4CCCCn5nc(C(=O)NC(C)C)c(Cl)c5C4)C3)c12 [Example 506]", "Assigned label": "Satisfied"}
{"Molecule": "CCc1c(F)ccc2cc(O)cc(N3CCc4c(nc(OC[C@@]56CCCN5C[C@H](F)C6)nc4N4CCCn5ncc(CO)c5C4)C3)c12 [Example 633]", "Assigned label": "Satisfied"}
{"Molecule": "Cc1cc2[nH]ncc2c(N2CCc3c(nc(OCC4(CN(C)C)CC4)nc3N3CCC[C@]4(C3)NC(=O)NC4=O)C2)c1C [Example 462]", "Assigned label": "Satisfied"}

====

Each record here notes measured inhibition at 0.1 µM.
Test system: H358 cells
Assay: Inhibition of KRas-mediated phosphorylation of ERK (Cisbio HTRF pERK), H358 cells
Assay type: cell-based
Details: Homo sapiens, NCI-H358, single point at 100 nM, 3 hrs compound incubation

{"Compound": "CN(C)C(=O)c1cc2n(n1)CCCN(c1nc(OCC34CCCN3CCC4)nc3c1CCN(c1cc(O)cc(Cl)c1C1CC1)C3)C2", "inhibition at 0.1 µM, %": -16}
{"Compound": "CCc1c(F)ccc2cc(O)cc(N3CCc4c(nc(OC[C@@]56CCCN5C[C@H](F)C6)nc4N4CCCn5nc(C(=O)N6CC7CC6CN7)cc5C4)C3)c12 (some centres unmarked)", "inhibition at 0.1 µM, %": 5}
{"Compound": "CCc1c(F)ccc2cc(O)cc(N3CCc4c(nc(OC[C@@]56CCCN5C[C@H](F)C6)nc4N4CCCn5nc(C(=O)NC)c(C)c5C4)C3)c12", "inhibition at 0.1 µM, %": 93}
{"Compound": "CCc1c(F)ccc2cc(O)cc(N3CCc4c(nc(OC[C@@]56CCCN5C[C@H](F)C6)nc4N4CCCn5nc(C(=O)N6CCC7CC6CN7C)cc5C4)C3)c12 (some centres unmarked)", "inhibition at 0.1 µM, %": 95}
{"Compound": "CCc1c(F)ccc2cc(O)cc(N3CCc4c(nc(OC[C@@]56CCCN5C[C@H](F)C6)nc4N4CCCn5nc(CNC(=O)NC)cc5C4)C3)c12", "inhibition at 0.1 µM, %": -7}
{"Compound": "CCc1c(F)ccc2cc(O)cc(N3CCc4c(nc(OC[C@@]56CCCN5C[C@H](F)C6)nc4N4CCCn5nc(C(=O)N6CC7CC(C6)N7)cc5C4)C3)c12", "inhibition at 0.1 µM, %": 48}
{"Compound": "CCc1c(F)ccc2cc(O)cc(N3CCc4c(nc(OC[C@@]56CCCN5C[C@H](F)C6)nc4N4CCCn5nc(C(=O)NC(C)C)c(Cl)c5C4)C3)c12", "inhibition at 0.1 µM, %": 91}
{"Compound": "CCc1c(F)ccc2cc(O)cc(N3CCc4c(nc(OC[C@@]56CCCN5C[C@H](F)C6)nc4N4CCCn5nc(CN(C)S(=O)(=O)NC)cc5C4)C3)c12", "inhibition at 0.1 µM, %": 7}
{"Compound": "CC1(O)COCCN(c2nc(OCC34CCCN3CCC4)nc3c2CCN(c2cc(O)cc(Cl)c2C2CC2)C3)C1 (centres unmarked)", "inhibition at 0.1 µM, %": 10}
{"Compound": "CCc1c(F)ccc2cc(O)cc(N3CCc4c(nc(OC[C@@]56CCCN5C[C@H](F)C6)nc4N4CCCn5nc(C(=O)N6CC7CCC6CC7)cc5C4)C3)c12", "inhibition at 0.1 µM, %": 95}
{"Compound": "CCc1c(F)ccc2cc(O)cc(N3CCc4c(nc(OC[C@@]56CCCN5C[C@H](F)C6)nc4N4CCCn5nc6c(c5C4)CCCN6)C3)c12", "inhibition at 0.1 µM, %": 47}
{"Compound": "CCc1c(F)ccc2cc(O)cc(N3CCc4c(nc(OC[C@@]56CCCN5C[C@H](F)C6)nc4N4CCCn5nc(C(=O)N6CC7COCC6C7)cc5C4)C3)c12 (some centres unmarked)", "inhibition at 0.1 µM, %": 100}
{"Compound": "CCc1c(F)ccc2cc(O)cc(N3CCc4c(nc(OC[C@@]56CCCN5C[C@H](F)C6)nc4N4CCCC5(C4)NC(=O)NC5=S)C3)c12 (some centres unmarked)", "inhibition at 0.1 µM, %": 34}
{"Compound": "CCc1c(F)ccc2cc(O)cc(N3CCc4c(nc(OC[C@@]56CCCN5C[C@H](F)C6)nc4N4CCCn5nc(C(=O)N6CCC7CC76)cc5C4)C3)c12 (some centres unmarked)", "inhibition at 0.1 µM, %": 97}

====

Each record here notes measured IC50.
Biological target: KRas G12D (Homo sapiens, UniProt P01116, G12D)
Sequence (P01116 1-169 isoform P01116-2 G12D): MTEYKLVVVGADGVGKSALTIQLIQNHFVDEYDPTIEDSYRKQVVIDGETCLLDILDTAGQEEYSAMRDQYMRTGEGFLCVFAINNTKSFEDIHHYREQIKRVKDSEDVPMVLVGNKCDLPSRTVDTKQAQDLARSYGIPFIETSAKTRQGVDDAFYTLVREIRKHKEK
Assay: biochemical
Conditions: Binding to KRas (IC50 nM) G12D, TR-FRET displacement, KRas G12D

{"Compound": "CCc1c(F)ccc2cc(O)cc(N3CCc4c(nc(OC[C@@]56CCCN5C[C@H](F)C6)nc4N4CCCn5nc(C(=O)NC6CC6)cc5C4)C3)c12 [Example 384]", "IC50": "< 2 nM"}
{"Compound": "CCc1c(F)ccc2cc(O)cc(N3CCc4c(nc(OC[C@@]56CCCN5C[C@H](F)C6)nc4N4CCCOCC4)C3)c12 [Example 420]", "IC50": "< 2 nM"}
{"Compound": "CCc1c(F)ccc2cc(O)cc(N3CCc4c(nc(OC[C@@]56CCCN5C[C@H](F)C6)nc4N4CCCn5nc(C(=O)N(C)CCOCCOC)cc5C4)C3)c12 [Example 373]", "IC50": "< 2 nM"}
